The values you see were collected from paper PMC11510191.

MIC values for the compounds below.
System: B. cereus (G+)
Assay: MIC broth microdilution
Type: cell-based
Conditions: Bacillus cereus, 24 h
readout.name: MIC

• CC(=O)O[C@@H]1[C@@H](OC(C)=O)[C@H](OC(C)=O)CO[C@H]1n1cc(CCCC(=O)Oc2c3c(c4ccccc4c2OC(=O)CCCc2cn([C@@H]4OC[C@@H](OC(C)=O)[C@H](OC(C)=O)[C@H]4OC(C)=O)nn2)OC(C)(C)C=C3)nn1 [Compound 3e] = > 200 µg/mL
• Cc1ccc(S(=O)(=O)n2cc(CCC(=O)Oc3c4c(c5ccccc5c3OC(=O)CCc3cn(S(=O)(=O)c5ccc(C)cc5)nn3)OC(C)(C)C=C4)nn2)cc1 [Compound 2f] = > 200 µg/mL
• CC1(C)C=Cc2c(OC(=O)CCCc3cn(Cc4ccc([N+](=O)[O-])cc4)nn3)c(OC(=O)CCCc3cn(Cc4ccc([N+](=O)[O-])cc4)nn3)c3ccccc3c2O1 [Compound 3h] = > 200 µg/mL
• C#CCCC(=O)Oc1c2c(c3ccccc3c1OC(=O)CCC#C)OC(C)(C)C=C2 [Compound 1a] = > 200 µg/mL
• CNC(C)C1CCC(N)C(OC2C(N)CC(N)C(OC3OCC(C)(O)C(NC)C3O)C2O)O1 (stereo not drawn) [Gentamicin, reference compound] = 0.78 µg/mL
• Cc1ccc(S(=O)(=O)n2cc(CCCC(=O)Oc3c4c(c5ccccc5c3OC(=O)CCCc3cn(S(=O)(=O)c5ccc(C)cc5)nn3)OC(C)(C)C=C4)nn2)cc1 [Compound 3f] = 100 µg/mL

* * *

Test system: T. cruzi epimastigotes
Test: Trypanocidal activity on T. cruzi epimastigotes (CL-B5 lacZ, CPRG)
Type: cell-based, Trypanosoma cruzi clone CL-B5
Conditions: Trypanosoma cruzi, 72 h, epimastigotes, 72 h; read-out: Trypanocidal Activity IC50 T. cruzi
readout.name: IC50

• Cc1ccc(-n2cc(CCCC(=O)Oc3c4c(c5ccccc5c3OC(=O)CCCc3cn(-c5ccc(C)cc5)nn3)OC(C)(C)C=C4)nn2)cc1 = > 256 µM
• CC1(C)C=Cc2c(OC(=O)CCc3cn(-c4ccc(Cl)cc4)nn3)c(OC(=O)CCc3cn(-c4ccc(Cl)cc4)nn3)c3ccccc3c2O1 = > 256 µM
• COc1ccc(-n2cc(CCCC(=O)Oc3c4c(c5ccccc5c3OC(=O)CCCc3cn(-c5ccc(OC)cc5)nn3)OC(C)(C)C=C4)nn2)cc1 = > 256 µM
• O=C(Cn1ccnc1[N+](=O)[O-])NCc1ccccc1 [Benznidazole, reference compound] = 54.7 µM
• CC1(C)C=Cc2c(OC(=O)CCCc3cn(-c4cccc(Cl)c4)nn3)c(OC(=O)CCCc3cn(-c4cccc(Cl)c4)nn3)c3ccccc3c2O1 = 146 µM
• Cc1ccc(-n2cc(CCC(=O)Oc3c4c(c5ccccc5c3OC(=O)CCc3cn(-c5ccc(C)cc5)nn3)OC(C)(C)C=C4)nn2)cc1 = > 256 µM

* * *

This section presents compounds with their documented MIC values.
Test system: L. monocytogenes (G+)
Assay: MIC broth microdilution
Format: cell-based
Settings: Listeria monocytogenes, 24 h
readout.name: MIC

* C#CCCC(=O)Oc1c2c(c3ccccc3c1OC(=O)CCC#C)OC(C)(C)C=C2 | > 200 µg/mL
* Cc1ccc(S(=O)(=O)n2cc(CCC(=O)Oc3c4c(c5ccccc5c3OC(=O)CCc3cn(S(=O)(=O)c5ccc(C)cc5)nn3)OC(C)(C)C=C4)nn2)cc1 | > 200 µg/mL
* CC1(C)C=Cc2c(OC(=O)CCCc3cn(Cc4ccc([N+](=O)[O-])cc4)nn3)c(OC(=O)CCCc3cn(Cc4ccc([N+](=O)[O-])cc4)nn3)c3ccccc3c2O1 | > 200 µg/mL
* CNC(C)C1CCC(N)C(OC2C(N)CC(N)C(OC3OCC(C)(O)C(NC)C3O)C2O)O1 (stereo not drawn) [Gentamicin, reference compound] | 0.2 µg/mL
* CC(=O)O[C@@H]1[C@@H](OC(C)=O)[C@H](OC(C)=O)CO[C@H]1n1cc(CCCC(=O)Oc2c3c(c4ccccc4c2OC(=O)CCCc2cn([C@@H]4OC[C@@H](OC(C)=O)[C@H](OC(C)=O)[C@H]4OC(C)=O)nn2)OC(C)(C)C=C3)nn1 | > 200 µg/mL
* Cc1ccc(S(=O)(=O)n2cc(CCCC(=O)Oc3c4c(c5ccccc5c3OC(=O)CCCc3cn(S(=O)(=O)c5ccc(C)cc5)nn3)OC(C)(C)C=C4)nn2)cc1 | 100 µg/mL

* * *

Tested on: M. abscessus LIID-03
Experiment: MIC broth microdilution
Format: cell-based
Conditions: Mycobacteroides abscessus, LIID03, 72 h
readout.name: MIC (µg/mL)

• CC(=O)NC[C@H]1CN(c2ccc(N3CCOCC3)c(F)c2)C(=O)O1 [Linezolid, reference compound] = 1
• C[C@@H](O)[C@H]1C(=O)N2C(C(=O)O)=C(SCCN=CN)C[C@H]12 [Imipenem, reference compound] = 8
• CC1(C)C=Cc2c(OC(=O)CCCc3cn(Cc4ccc([N+](=O)[O-])cc4)nn3)c(OC(=O)CCCc3cn(Cc4ccc([N+](=O)[O-])cc4)nn3)c3ccccc3c2O1 = 100

* * *

Readings of Selectivity Index L929/ L. b for the listed compounds
Test system: Leishmania brazilensis (L. b) promastigotes
Test: Leishmanicidal activity on L. braziliensis promastigotes (resazurin)
Details: SI = CC50 L929/IC50 parasites
readout.name: Selectivity Index L929/ L. b

- CCCCCCCCCCCCCCCCOP(=O)([O-])OCC[N+](C)(C)C [Miltefosine, reference compound]: 43.0
- C#CCCC(=O)Oc1c2c(c3ccccc3c1OC(=O)CCC#C)OC(C)(C)C=C2: 10
- Cc1ccc(S(=O)(=O)n2cc(CCC(=O)Oc3c4c(c5ccccc5c3OC(=O)CCc3cn(S(=O)(=O)c5ccc(C)cc5)nn3)OC(C)(C)C=C4)nn2)cc1: 2
- C#CCCCC(=O)Oc1c2c(c3ccccc3c1OC(=O)CCCC#C)OC(C)(C)C=C2: 19
- Cc1ccc(S(=O)(=O)n2cc(CCCC(=O)Oc3c4c(c5ccccc5c3OC(=O)CCCc3cn(S(=O)(=O)c5ccc(C)cc5)nn3)OC(C)(C)C=C4)nn2)cc1: 18

* * *

Experiment: Cytotoxicity on L929 fibroblasts (resazurin)
Conditions: mouse
readout.name: CC50 at 24 h

- CC1(C)C=Cc2c(OC(=O)CCc3cn(Cc4ccc([N+](=O)[O-])cc4)nn3)c(OC(=O)CCc3cn(Cc4ccc([N+](=O)[O-])cc4)nn3)c3ccccc3c2O1: > 256 µM
- O=C(Cn1ccnc1[N+](=O)[O-])NCc1ccccc1 [Benznidazole, reference compound]: 769 µM
- CC1(C)C=Cc2c(OC(=O)CCCc3cn(Cc4ccc([N+](=O)[O-])cc4)nn3)c(OC(=O)CCCc3cn(Cc4ccc([N+](=O)[O-])cc4)nn3)c3ccccc3c2O1: > 256 µM

* * *

Test system: T. cruzi epimastigotes
Assay: Trypanocidal activity on T. cruzi epimastigotes (CL-B5 lacZ, CPRG)
Type: cell-based, Trypanosoma cruzi clone CL-B5
Conditions: Trypanosoma cruzi, 72 h, epimastigotes, 72 h; read-out: Trypanocidal Activity IC50 T. cruzi
Procedure: For in vitro studies of T. cruzi. the clone CL-B5 was used. Parasites were stably transfected with the Escherichia coli β-galactosidase gene (lacZ), provided by Facultad de Farmacia (Universidad Complutense de Madrid). […] The plates were incubated at 37 °C for an additional 4 h and then read at 595 nm. […] These values were calculated from the sigmoidal dose–response curve adjustment using the statistical software program Graph-Pad Prims 3.0. […]
// reported IC50 for each item listed
readout.name: IC50 (µM)

• C#CCCC(=O)Oc1c2c(c3ccccc3c1OC(=O)CCC#C)OC(C)(C)C=C2 [Compound 1a] = 19.2
• COc1ccc(-n2cc(CCC(=O)Oc3c4c(c5ccccc5c3OC(=O)CCc3cn(-c5ccc(OC)cc5)nn3)OC(C)(C)C=C4)nn2)cc1 [Compound 2b] = 204
• C#CCCCC(=O)Oc1c2c(c3ccccc3c1OC(=O)CCCC#C)OC(C)(C)C=C2 [Compound 1b] = 37.3

* * *

Assay: Cytotoxicity on L929 fibroblasts (resazurin)
Conditions: mouse
Catalogue of CC50 at 24 h values
readout.name: CC50 at 24 h

* CC1(C)C=Cc2c(OC(=O)CCCc3cn(-c4ccc(Cl)cc4)nn3)c(OC(=O)CCCc3cn(-c4ccc(Cl)cc4)nn3)c3ccccc3c2O1 [Compound 3c] | > 256 µM
* COc1ccc(-n2cc(CCCC(=O)Oc3c4c(c5ccccc5c3OC(=O)CCCc3cn(-c5ccc(OC)cc5)nn3)OC(C)(C)C=C4)nn2)cc1 [Compound 3b] | > 256 µM
* CC1(C)C=Cc2c(OC(=O)CCc3cn(Cc4ccc(Br)cc4)nn3)c(OC(=O)CCc3cn(Cc4ccc(Br)cc4)nn3)c3ccccc3c2O1 [Compound 2i] | > 256 µM
